# EXPERIMENTAL DETAILS: Acute toxicity in po dosed Mus musculus ICR (mouse) assessed as mortality measured after 14 days
# Assay type: organism-based
# DETAILS: in vivo
For each entry below, report its LD50 at 336 h value.

>>> measured("O=[N+]([O-])/C=C1\\NCCN1Cc1ccc(Cl)nc1")
"< 30 mg/kg"

Below: the item to evaluate.
Query: Bench note: what LD50 at 336 h did C=CCSC/C(=C1/NCCN1Cc1ccc(Cl)nc1)[N+](=O)[O-] show?
Reply: > 1000 mg/kg
